Test: Plasma concentration in Mycobacterium bovis BCG infected tuberculosis mouse model at 5 mg/kg, po after 16 hrs
Type: ADME, organism-based
Parameters: dose 5 mg/kg, route oral
ENDPOINT: concentration at 16 h (µg/mL)
Answer format: numeric, µg/mL implied, no suffix.

In: Which concentration at 16 h value is on record for `CO[C@H]1/C=C/O[C@@]2(C)Oc3c(C)c(O)c4c(O)c(c(/C=N/N5CCN(C)CC5)c(O)c4c3C2=O)NC(=O)/C(C)=C\C=C\[C@H](C)[C@H](O)[C@@H](C)[C@@H](O)[C@@H](C)[C@H](OC(C)=O)[C@@H]1C` ?
Out: 0.66

Ref: ChEMBL document CHEMBL1143402
